target: T1, monkey CD47 on CHO-cynoCD47 cells (monkey); assay: flow cytometry on CHO-cynoCD47 cells, MFI curve
T1 construct: whole, on cells; Cell line named CHO-cynoCD47; the text calls the species 'monkey'
Consider the following binders and their measured EC50 readings.
The response must be a number in nM with no trailing unit.

See these solved cases before continuing.
* 7A11H42 (antibody, V domains shown, also called CD47 antibody) VH: QVQLVQSGAEVKKPGSSVKVSCKASGSSFTSNWMNWVRQAPGQGLEWIGMIHPSDSETRLNQKFQGRVTITADKSTSTAYMELSSLRSEDTAVYYCARGTTVVDAFAYWGQGTTVTVSS VL: DIQMTQSPSSLSASVGDRVTMTCKSSQSLLNSRTRKNYLAWYQQKPGKAPKLLIYWASTRESGVPSRFSGSGSGTDFTLTISSLQPEDFATYYCKQSYNLRTFGGGTKLEIK | 5
* 7A11H22 (antibody, V domains shown, also called CD47 antibody) VH: QVQLVQSGAEVKKPGASVKVSCKASGSSFTSNWMNWVRQAPGQGLEWIGMIHPSDSETRLNQKFKDRATLTVDKSTSTAYMELSSLRSEDTAVYYCARGTTVVDAFAYWGQGTTVTVSS VL: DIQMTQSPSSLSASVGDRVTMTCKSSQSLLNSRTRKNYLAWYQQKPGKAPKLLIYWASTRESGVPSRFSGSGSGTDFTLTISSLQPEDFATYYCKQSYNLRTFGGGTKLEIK | 8.55
* 7A11H33 (antibody, V domains shown, also called CD47 antibody) VH: QVQLVQSGAEVKKPGSSVKVSCKASGSSFTSNWMNWVRQAPGQGLEWIGMIHPSDSETRLNQKFKDRVTITADKSTSTAYMELSSLRSEDTAVYYCARGTTVVDAFAYWGQGTTVTVSS VL: DIQMTQSPSSLSASVGDRVTMTCKSSQSLLNTRTRKNYLAWYQQKPGKAPKLLIYWASTRESGVPSRFSGSGSGTDFTLTISSLQPEDFATYYCKQSYNLRTFGGGTKLEIK | 4.85
* 7A11H32 (antibody, V domains shown, also called CD47 antibody) VH: QVQLVQSGAEVKKPGSSVKVSCKASGSSFTSNWMNWVRQAPGQGLEWIGMIHPSDSETRLNQKFKDRVTITADKSTSTAYMELSSLRSEDTAVYYCARGTTVVDAFAYWGQGTTVTVSS VL: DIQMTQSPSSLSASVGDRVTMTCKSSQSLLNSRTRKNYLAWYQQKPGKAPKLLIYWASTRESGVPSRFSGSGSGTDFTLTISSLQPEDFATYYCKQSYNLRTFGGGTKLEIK | 17.1

Which value of EC50 has been reported for Hu5F9-G4 (antibody, V domains shown) VH: QVQLVQSGAEVKKPGASVKVSCKASGYTFTNYNMHWVRQAPGQRLEWMGTIYPGNDDTSYNQKFKDRVTITADTSASTAYMELSSLRSEDTAVYYCARGGYRAMDYWGQGTLVTVSS VL: DIVMTQSPLSLPVTPGEPASISCRSSQSIVYSNGNTYLGWYLQKPGQSPQLLIYKVSNRFSGVPDRFSGSGSGTDFTLKISRVEAEDVGVYYCFQGSHVPYTFGQGTKLEIKR in the records?
5.12

Which value of EC50 has been reported for 7A11H55 (antibody, V domains shown, also called CD47 antibody) VH: QVQLVQSGAEVKKPGSSVKVSCKASGGTFTSNWMNWVRQAPGQGLEWIGMIHPSDSETRLNQKFQGRVTITADKSTSTAYMELSSLRSEDTAVYYCARGTTVVDAFAYWGQGTTVTVSS VL: EIVMTQSPPTLSLSPGERVTMSCKSSQSLLNSRTRKNYLAWYQQKPGQAPRLLIYWASTRESGIPARFSGSGSGTDFTLTISSLQPEDFAVYYCKQSYNLRTFGGGTKLEIK in the records?
4.62

Which value of EC50 has been reported for 7A11H35 (antibody, V domains shown, also called CD47 antibody) VH: QVQLVQSGAEVKKPGSSVKVSCKASGSSFTSNWMNWVRQAPGQGLEWIGMIHPSDSETRLNQKFKDRVTITADKSTSTAYMELSSLRSEDTAVYYCARGTTVVDAFAYWGQGTTVTVSS VL: EIVMTQSPPTLSLSPGERVTMSCKSSQSLLNSRTRKNYLAWYQQKPGQAPRLLIYWASTRESGIPARFSGSGSGTDFTLTISSLQPEDFAVYYCKQSYNLRTFGGGTKLEIK in the records?
4.38

Which value of EC50 has been reported for 7A11H14 (antibody, V domains shown, also called CD47 antibody) VH: QVQLVQPGAEVKKPGASVKLSCKASGSSFTSNWMNWVRQAPGQGLEWIGMIHPSDSETRLNQKFKDRATLTVDKSTSTAYMELSSPRSEDTAVYYCARGTTVVDAFAYWGQGTTVTVSS VL: DIVMTQSPDSLAVSLGERATMNCKSSQSLLNTRTRKNYLAWYQQKPGQPPKLLIYWASTRESGVPDRFSGSGSGTDFTLTISSLQAEDVAVYYCKQSYNLRTFGGGTKLEIK in the records?
4.96

FYI, the data here is from patent US20230312709A1.
